System: Septoria tritici
Assay Text: Activity against leaf blotch on wheat caused by Septoria tritici (microtiter plate)
Assay type: cell-based
Recorded Conditions: active alone, 4 ppm

Molecule: N#CC1=C(C#N)SC(C#N)=C(C#N)S1 [Compound I.A, 2,3,5,6-tetracyano-[1,4]dithiine]
Observed efficacy, %: 74
--
Molecule: COCC(=O)N(c1c(C)cccc1C)[C@H](C)C(=O)OC [Metalaxyl-M]
Observed efficacy, %: 11
--
Molecule: CCCCCCCCc1c(CC)nc2ncnn2c1N
Observed efficacy, %: 13
--
Molecule: Cc1ccc(C(C)NC(=O)[C@@H](NC(=O)OC(C)C)C(C)C)cc1 (stereo partly drawn)
Observed efficacy, %: 13
--
Molecule: CC(C)NC(=O)N1CC(=O)N(c2cc(Cl)cc(Cl)c2)C1=O
Observed efficacy, %: 0
--
Molecule: CC(C)[C@H](NC(=O)O)C(=O)N[C@H](C)c1nc2ccc(F)cc2s1
Observed efficacy, %: 10
